recordedMetric: melting point

IN: Returns the measured melting point for the input molecule. Input: CCCn1c(=O)n(CC(=O)N(CC)CC)c2nc(-c3ccccc3)ncc21
OUT: 141 to 143 °C

IN: Also CCN(C(=O)Cn1c(=O)n(C)c2nc(-c3cccc(Cl)c3)ncc21)c1ccccc1 ?
OUT: 195 to 196 °C

IN: Also CN(C(=O)Cn1c(=O)n(C)c2cnc(-c3ccccc3)nc21)c1ccccc1 ?
OUT: 202 to 203 °C

IN: Also CCCN(C(=O)Cn1c(=O)n(C)c2nc(-c3ccccc3)ncc21)c1ccccc1 ?
OUT: 221 to 223 °C

IN: Also CCn1c(=O)n(CC(=O)N(C)Cc2ccccc2)c2nc(-c3ccccc3)ncc21 ?
OUT: 147 to 149 °C

IN: Also CN(C(=O)Cn1c(=O)[nH]c2cnc(-c3ccccc3)nc21)c1cccc(Cl)c1 ?
OUT: 234 to 236 °C

IN: Also COc1ccc(CN(C)C(=O)Cn2c(=O)n(C)c3nc(-c4ccccc4)ncc32)cc1 ?
OUT: 174 to 176 °C

IN: Also CCN(C(=O)Cn1c(=O)n(C)c2nc(-c3ccc(Cl)cc3)ncc21)c1ccccc1 ?
OUT: 174 to 175 °C

* * *

Kindly state melting point for each of the entries shown.

IN: Returns the measured melting point for the input molecule. Input: CCN(C(=O)Cn1c(=O)n(C)c2nc(-c3ccsc3)ncc21)c1ccccc1
OUT: 226 to 228 °C

IN: Also CCN(CC)C(=O)Cn1c(=O)n(CC)c2cnc(-c3ccccc3)nc21 ?
OUT: 198 to 200 °C

IN: Also CCN(C(=O)Cn1c(=O)n(C)c2nc(-c3cccs3)ncc21)c1ccccc1 ?
OUT: 236 to 238 °C

IN: Also CCCN(CCC)C(=O)Cn1c(=O)n(C)c2cnc(-c3ccc(F)cc3)nc21 ?
OUT: 140 to 141 °C

IN: Also CN(C)C(=O)Cn1c(=O)[nH]c2cnc(-c3ccccc3)nc21 ?
OUT: > 300 °C

IN: Also CCN(Cc1ccccc1)C(=O)Cn1c(=O)n(CC)c2cnc(-c3ccc(Cl)cc3)nc21 ?
OUT: 157 to 158 °C

IN: Also CN(Cc1ccccc1)C(=O)Cn1c(=O)n(C)c2nc(-c3ccc(F)cc3)ncc21 ?
OUT: 170 to 171 °C

IN: Also CCCN(CCC)C(=O)Cn1c(=O)[nH]c2cnc(-c3ccc([N+](=O)[O-])cc3)nc21 ?
OUT: 256 to 258 °C

* * *

recordedMetric: melting point

IN: Returns the measured melting point for the input compound. Input: CN(Cc1ccccc1)C(=O)Cn1c(=O)n(C)c2cnc(-c3ccc(Cl)cc3)nc21 [Example 137]
OUT: 241 to 242 °C

IN: Also COc1ccc(N(C)C(=O)Cn2c(=O)[nH]c3cnc(-c4ccccc4)nc32)cc1 [Example 101] ?
OUT: 238 to 240 °C

IN: Also CN(C(=O)Cn1c(=O)n(C)c2cnc(-c3cccnc3)nc21)c1ccccc1 [Example 171] ?
OUT: 216 to 217 °C

IN: Also CCn1c(=O)n(CC(=O)N(C)c2cccc(Cl)c2)c2nc(-c3ccccc3)ncc21 [Example 161] ?
OUT: 205 to 207 °C

IN: Also CCN(Cc1ccccc1)C(=O)Cn1c(=O)n(C)c2nc(-c3ccccc3)ncc21 [Example 54] ?
OUT: 112 to 115 °C

IN: Also CCN(CC)C(=O)Cn1c(=O)[nH]c2cnc(-c3ccccc3)nc21 [Example 85] ?
OUT: 222 to 224 °C

IN: Also CCCN(CCC)C(=O)Cn1c(=O)n(C)c2nc(-c3ccccc3)ncc21 [Example 26] ?
OUT: 133 to 134 °C

IN: Also CCN(Cc1ccccc1)C(=O)Cn1c(=O)n(CC)c2cnc(-c3ccccc3)nc21 [Example 150] ?
OUT: 134 to 136 °C

IN: Also CCN(C(=O)Cn1c(=O)n(C)c2nc(-c3cccnc3)ncc21)c1ccccc1 [Example 38] ?
OUT: 195 to 196 °C

IN: Also CN(C(=O)Cn1c(=O)n(C)c2nc(-c3ccccc3)ncc21)c1ccccc1 [Example 2] ?
OUT: 147 to 148 °C

IN: Also COc1ccc(-c2ncc3c(n2)n(C)c(=O)n3CC(=O)N(C)c2ccccc2)cc1 [Example 6] ?
OUT: 176 to 178 °C

IN: Also CCN(C(=O)Cn1c(=O)[nH]c2cnc(-c3ccccc3)nc21)c1ccccc1 [Example 103] ?
OUT: 237 to 238 °C

IN: Also CCn1c(=O)n(CC(=O)N(C)c2ccc(Cl)cc2)c2nc(-c3ccccc3)ncc21 [Example 162] ?
OUT: 173 to 175 °C

IN: Also CCCCN(CCCC)C(=O)Cn1c(=O)[nH]c2cnc(-c3ccccc3)nc21 [Example 95] ?
OUT: 196 to 198 °C

IN: Also CCN(Cc1ccccc1)C(=O)Cn1c(=O)n(C)c2cnc(-c3ccc(Cl)cc3)nc21 [Example 147] ?
OUT: 172 to 173 °C

IN: Also COc1ccc(N(C)C(=O)Cn2c(=O)n(C)c3cnc(-c4ccccc4)nc32)cc1 [Example 163] ?
OUT: 172 to 174 °C

IN: Also CN(C)C(=O)Cn1c(=O)n(C)c2cnc(-c3ccccc3)nc21 [Example 127] ?
OUT: 262 to 264 °C

IN: Also CCCCN(CCCC)C(=O)Cn1c(=O)n(C)c2cnc(-c3ccccc3)nc21 [Example 134] ?
OUT: 192 to 193 °C

IN: Also CN(Cc1ccccc1F)C(=O)Cn1c(=O)n(C)c2nc(-c3ccccc3)ncc21 [Example 71] ?
OUT: 198 to 199 °C

IN: Also CCn1c(=O)n(CC(=O)N(C)c2ccccc2)c2nc(-c3cccnc3)ncc21 [Example 172] ?
OUT: 199 to 200 °C

IN: Also CCCN(C(=O)Cn1c(=O)n(C)c2cnc(-c3ccccc3)nc21)c1ccccc1 [Example 169] ?
OUT: 174 to 176 °C

IN: Also CCCN(C(=O)Cn1c(=O)[nH]c2cnc(-c3ccccc3)nc21)c1ccccc1 [Example 96] ?
OUT: 258 to 260 °C

IN: Also CCCN(CCC)C(=O)Cn1c(=O)n(CC)c2cnc(-c3ccc(Cl)cc3)nc21 [Example 116] ?
OUT: 158 to 159 °C

IN: Also CCN(CC)C(=O)Cn1c(=O)n(C)c2nc(-c3ccccc3)ncc21 [Example 19] ?
OUT: 207 to 209 °C

IN: Also CCCN(CCC)C(=O)Cn1c(=O)n(CCC)c2cnc(-c3ccccc3)nc21 [Example 120] ?
OUT: 125 to 127 °C

IN: Also CCN(C(=O)Cn1c(=O)n(C)c2nc(-c3ccc(F)cc3)ncc21)c1ccccc1 [Example 12] ?
OUT: 211 to 212 °C
